experiment_summary: NCI Yeast Anticancer Drug Screen. Data for the mec2-1 strain (AID 157)
study_conditions: S. cerevisiae mec2-1 strain, at 50.0 µM, stronger effect = higher value
Compounds without any hit were thinned out: in the full panel of roughly 79,000, 15% have a hit.
Exercise: state measured growth inhibition for each of the molecules provided.
Note: unit % is implicit; provide only the numeric part.

Ask: Which growth inhibition is reported for this molecule? O=c1[nH]cnc2c(C3OC(CO)C(O)C3O)[nH]nc12 (configuration not stated)
Result: -34.7

Ask: What about "CC(C)(C)c1ccc(-n2c3nc(=O)n(-c4ccccc4CO)c(=O)c-3cc3ccccc32)cc1" ?
Result: -12.8

Ask: Same question, "CN(C)CCCNC(=S)S" this time
Result: -28.6

Ask: Do the same for Cc1nn(C(=O)c2ccncc2)c2c1C(c1ccccc1)SC(N)=N2 (configuration not stated) please
Result: -20.1

Ask: # repeat for "O=C1NC(=O)/C(=C\c2cccc(Br)c2)N1"
Result: 4.15

Ask: // repeat for "CNC(=O)OCc1nc(SSC(C)(C)C)n(C)c1COC(=O)NC" and report
Result: -1.5

Ask: Same thing, different molecule: "O=C(O)[C@@H]1[C@@H]2C[C@@H]3[C@H](OC(=O)[C@@H]31)[C@@H]2O"
Result: -12.2

Ask: Moving on to CC(=O)Nc1ccc(C(=O)NN2C(=O)C(Cl)C2c2ccc(Cl)cc2)cc1 (configuration not stated)
Result: -32.3

Ask: And for C=CCCCCCCCCC1OCC(CC)C(CCC)O1 (configuration not stated) ?
Result: 10.1

Ask: Same read-out for "O=C(O)CSc1n[nH]c(-c2ccccc2O)n1" ?
Result: 2.5

Ask: Please give the result for Oc1ccc(C2SCc3nc4ccccc4n32)cc1 (configuration not stated) too.
Result: -17.9

Ask: Please answer likewise for COC1CCC2(C)C3CCC4C(=CCC5C(C)(C)C(O)CCC45C)CC3(C)CCC2C1(C)C (configuration not stated)
Result: -12.3

Ask: Next molecule: C=C(C(=O)O)C1CC[C@@]2(C)CCC[C@@](C)(O)C2C1 (some centres not stated)
Result: -5.8

Ask: And the next one, "O=C(NCC1(O)CCCCC1)c1ccccc1" ?
Result: -14.2

Ask: Similarly, "COc1ccc(Cc2nc3c([nH]2)c(=O)n(C)c(=O)n3C)cc1" ?
Result: -14.1

Ask: Same question, "CCCCNC(=S)C(=S)NCCCC" this time
Result: -0.3

Ask: Now this one: COC1=CC(=O)C(C2CC(=O)c3c(O)cc(O)cc3O2)=CC1=O (configuration not stated)
Result: 0.85

Ask: "CCc1[nH]nc(-c2n[nH]c(CC)c2C)c1C" , same question.
Result: -24.9

Ask: Please give the result for CC(C)CCCC(C)[C@H]1CCC2[C@@H]3CCC4Cc5nc6c(nc5C[C@]4(C)C3CC[C@@]21C)CC1CC[C@@H]2C(C[C@@H](O)[C@@]3(C)C2C[C@@H]2OC4(CCC(C)CO4)C(C)[C@@H]23)[C@@]1(C)C6 (some centres not stated) too.
Result: 1.65

Ask: Repeat with "COc1ccc2c(c1)CC/C(=C\c1ccccn1)C2=O"
Result: 33.5

Ask: What about O=c1[nH]c(=O)n(C2OC(COP(=O)(O)OP(=O)(O)O)C(O)C2O)cc1F (configuration not stated) ?
Result: -2.7

Ask: And for "CCNCCCCNCC" ?
Result: -14.9

* * *

experiment_summary: NCI Yeast Anticancer Drug Screen. Data for the mec2-1 strain (AID 157)
study_conditions: S. cerevisiae mec2-1 strain, at 50.0 µM
About 79,000 compounds went through this panel and 15% of them were active in at least one assay; those are over-represented in the sample as a whole. Calls of active or inactive are those of the source. Cut-off read from the data, not from the text of the source: active = growth inhibition above about 70%; inactive = the rest.
Field 'call' accepts active, inactive

Ask: Query: recorded result category for O=C(O)c1c(CC(Cc2ccc3c(c2)CCCC3)C(=O)O)ccc2c1CCCC2 (centres undefined) in this test
Result: inactive

Ask: And "CCCCCSc1ncnc2c1ncn2CO" ?
Result: inactive

Ask: Query COc1ccc(C(CC(=O)O)c2ccccc2)cc1 (centres undefined) next
Result: inactive

Ask: Here is the next compound: "N#C/C(=C\c1ccccc1)c1cccc(Cl)c1"
Result: inactive

Ask: Would you mind doing CC1=CC(N)C2CC1C2(C)C (centres undefined) as well?
Result: inactive

Ask: Note, next up: COC(=O)C1OC(Sc2ncnc3nc[nH]c23)C(O)C(O)C1O (centres undefined)
Result: inactive

Ask: Another compound to check: "COc1ccc(NS(=O)(=O)c2ccc(N=Cc3c4ccccc4nc4ccccc34)cc2)nn1"
Result: active

Ask: Next entry: "O=c1[nH]c2cc(Cl)ccc2nc1/C=C(\O)c1ccc([N+](=O)[O-])cc1"
Result: inactive

Ask: How about this compound: "C/C(=N/Nc1ccc([N+](=O)[O-])cc1[N+](=O)[O-])c1ccc(Sc2ccc(/C(C)=N/Nc3ccc([N+](=O)[O-])cc3[N+](=O)[O-])cc2)cc1"
Result: inactive

Ask: One more compound: "Cn1c(-c2ccccc2)nc(-c2ccccc2)[n+]1[O-]"
Result: inactive

Ask: Now the compound O=S(=O)(O)C(CO)c1ccccc1 (centres undefined) (tested in a mixture with another compound)
Result: inactive

Ask: Ok, now COc1cc(C2C3=C(COC3=O)OC(C)(C)Oc3cc4c(cc32)OCO4)cc(OC)c1O (centres undefined)
Result: inactive

Ask: How about this compound: "SC1(S)CCCN(Cc2ccccc2)C1"
Result: inactive

Ask: How about "Nc1cc2c(cc1Br)-c1cc(Cl)c(Cl)cc1C2=O" ?
Result: inactive

* * *

experiment_summary: NCI Yeast Anticancer Drug Screen. Data for the rad50 strain (AID 155);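 also: 0% = growth of vehicle-only cultures of the same strain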
study_conditions: S. cerevisiae rad50 strain growth inhibition; at 50.0 µM; stronger effect = higher value
Compounds without any hit were thinned out: in the full panel of roughly 79,000, 15% have a hit.
reported_metric: growth inhibition (%)
Give just the numeric value; % need not be written.

Ask: // lookup growth inhibition for CCOC(=O)COC(=O)C1C(C(N)=O)N(CC(=O)OCC)CCN1CC(=O)OCC (stereo not drawn)
Result: 1.85

Ask: What do you have for "Nc1nc(N)c(-c2ccc(Cl)cc2)c(CCC(=O)Nc2cccc(C(F)(F)F)c2)n1" ?
Result: -25.2

Ask: Same again, this time with "CCOC(=O)/C(C#N)=C/c1ccc(O)c(OC)c1"
Result: 30.4

Ask: Proceed to "CC1(O)CCCCCCC1"
Result: 0.85

Ask: Note, next up: "COCCOC(=O)CO"
Result: 4.35

Ask: Input "COc1cc(NCCCCCN2C(=O)c3ccccc3C2=O)c2ncccc2c1"
Result: 13.9

Ask: Cool, now CCn1c(=O)c2[nH]c(Cl)nc2n(CC(C)Cl)c1=O (stereo not drawn)
Result: 19.1

Ask: Consider next the compound "COc1ccc(-c2cc(-c3ccccc3)n(-c3ccccc3)n2)cc1" in the same way.
Result: -0.9

Ask: Also CC1=C(O[Si](C(C)C)(C(C)C)C(C)C)C2CC1[C@@H]1C(=O)N(c3ccccc3)C(=O)[C@H]21 (stereo partly drawn) ?
Result: -1.45

Ask: Now give it for "NC(=O)OCc1c(-c2ccccc2)nn(-c2ccccc2)c1COC(N)=O" too.
Result: -26.2

Ask: # repeat for "COc1cc(/C=C/c2ccccn2)oc(=O)c1"
Result: 5.2

Ask: Try the compound COC1CCC(C2=NC3CCCCC3SC2)CC1 (stereo not drawn)
Result: 13.6

Ask: Subsequent entry: OC(c1ccncc1)(c1ccc(Cl)cc1)c1cccs1 (stereo not drawn)
Result: 6.35

* * *

Record form. Attribute: growth inhibition. Fill in for each entry.
experiment_summary: NCI Yeast Anticancer Drug Screen. Data for the sgs1 mgt1 strain (AID 161);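 also: 0% = growth of cultures given vehicle only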
study_conditions: S. cerevisiae sgs1 mgt1 strain, at 50.0 µM, stronger effect = higher value
About 79,000 compounds went through this panel and 15% of them were active in at least one assay; those are over-represented in the sample as a whole. Where a SMILES comes first, the peptide text is derived from it. [ ]: non-standard residue; d: D form. The star is where a group is joined. ξ: configuration not given here. Bz = O=C(c1ccccc1)*; Bn = c1ccc(C*)cc1; ξC = NC(CS)C(=O)O
Express your answer in %, writing the number without its unit.

Ask: Which measured growth inhibition value corresponds to "CCC(=O)Nc1cc(C)ccc1Cl" ?
Result: 3.2

Ask: Now give it for C=CC1C(OC2OC(CO)C(O)C(O)C2O)OC=C(C(=O)OC)C1CC=O (stereo unspecified) too.
Result: 4.15

Ask: Lookup CN1C(=O)C2C(C1=O)[C@H]1c3ccccc3C=CN1[C@@H]2C(=O)c1ccccc1 (stereo partly specified)
Result: -0.25

Ask: Would you kindly repeat that for "CCOP(=O)(OCC)/C(=C\n1ccc(=O)[nH]c1=S)C(=O)OC" ?
Result: -27.4

Ask: // next record O=C(NCCCN1CC2CCCC2C1)C(c1ccccc1)c1ccccc1 (stereo unspecified)
Result: -41.8

Ask: Query "O=S(=O)(O)CCCO" next
Result: -14.7

Ask: Cool, now "COc1ccc(N(C(=O)Nc2ccc(Cl)c(Cl)c2)c2ccccc2)cc1"
Result: -19.2

Ask: O=C(CNC(=O)c1ccccc1)NC(CSCc1ccccc1)C(=O)O (stereo unspecified) (Bz-Gly-[ξC](Bn)-OH) ?
Result: -28.8

Ask: Next up: "O=C1C=C(Sc2ccccc2)c2nccc3c2c1nc1ccccc13"
Result: 20.4

Ask: Field entry: "O=C(O)c1ccccc1N1C(=O)c2ccccc2C1=O"
Result: -4.1

Ask: Try this molecule next: "NCCS/C=C/C(=O)Oc1ccc(Br)cc1"
Result: 12.1

Ask: Moving on to "C[C@H](CCC(=O)NCCS(=O)(=O)O)[C@H]1CC[C@H]2[C@@H]3CC[C@@H]4C[C@H](O)CC[C@]4(C)[C@H]3CC[C@]12C"
Result: 5.65

Ask: # iterate: "CCOC(=O)NC(Nc1ccc(F)cc1F)(C(F)(F)F)C(F)(F)F"
Result: -15.7

Ask: Another: "Nc1cc2c(cc1Br)-c1cc(Cl)c(Cl)cc1C2=O"
Result: -7.15

Ask: Also Cc1nn(C(=O)c2ccccc2O)c2c1C(c1ccccc1)SC(N)=N2 (stereo unspecified) , if possible.
Result: 25.2

Ask: // next record CCc1nc2c(c(=O)[nH]1)C(c1ccc(Cl)cc1)C(C)(C)O2 (stereo unspecified)
Result: -17.4
